substrate: CCCC(=O)Oc1ccc([N+](=O)[O-])cc1; test: purified protein; type: biochemical, Falsihalocynthiibacter arcticus; conditions: free enzyme, 20 mM Tris-HCl pH 8.0, 25 °C (standard assay)
recorded.endpoint: Vmax (µM/min)
Numeric only. Scale: µM/min

Example proteins with recorded Vmax:
protein	unit.text	Vmax
HaSGNH1 (Falsihalocynthiibacter arcticus) (protein, ORF cloned from genomic DNA (primer starts ATG AGT GCT CGC GTT: MSARV), pET-21a, N-terminal His6 tag, E. coli BL21(DE3)) MSARVQAETVVIAALGDSLTQGYGLPQEDGLVAQLQGWLDENNHDIRLINAGVSGDTTAGGRSRIEWTLTPDVDAVIVELGGNDMMRGIAPSDSRKNLTEILEILQSRDLPVLLVGLPSANNFGPEFKAEFDDMFPALSTDFETLLYPDFFTSFRTKLNDTSALTTYMQDDAIHPNAKGVAAIVEDFGPLVVELAQQTQE	µM/min	60
HaSGNH1 (Falsihalocynthiibacter arcticus; M86E) (protein, ORF cloned from genomic DNA (primer starts ATG AGT GCT CGC GTT: MSARV), pET-21a, N-terminal His6 tag, E. coli BL21(DE3)) MSARVQAETVVIAALGDSLTQGYGLPQEDGLVAQLQGWLDENNHDIRLINAGVSGDTTAGGRSRIEWTLTPDVDAVIVELGGNDMERGIAPSDSRKNLTEILEILQSRDLPVLLVGLPSANNFGPEFKAEFDDMFPALSTDFETLLYPDFFTSFRTKLNDTSALTTYMQDDAIHPNAKGVAAIVEDFGPLVVELAQQTQE	µM/min	36.6
HaSGNH1 (Falsihalocynthiibacter arcticus; M86R) (protein, ORF cloned from genomic DNA (primer starts ATG AGT GCT CGC GTT: MSARV), pET-21a, N-terminal His6 tag, E. coli BL21(DE3)) MSARVQAETVVIAALGDSLTQGYGLPQEDGLVAQLQGWLDENNHDIRLINAGVSGDTTAGGRSRIEWTLTPDVDAVIVELGGNDMRRGIAPSDSRKNLTEILEILQSRDLPVLLVGLPSANNFGPEFKAEFDDMFPALSTDFETLLYPDFFTSFRTKLNDTSALTTYMQDDAIHPNAKGVAAIVEDFGPLVVELAQQTQE	µM/min	46.8

In the following, a different protein is considered.
I would be grateful if you could share the reported Vmax for HaSGNH1 (Falsihalocynthiibacter arcticus; R87L) (protein, ORF cloned from genomic DNA (primer starts ATG AGT GCT CGC GTT: MSARV), pET-21a, N-terminal His6 tag, E. coli BL21(DE3)) MSARVQAETVVIAALGDSLTQGYGLPQEDGLVAQLQGWLDENNHDIRLINAGVSGDTTAGGRSRIEWTLTPDVDAVIVELGGNDMMLGIAPSDSRKNLTEILEILQSRDLPVLLVGLPSANNFGPEFKAEFDDMFPALSTDFETLLYPDFFTSFRTKLNDTSALTTYMQDDAIHPNAKGVAAIVEDFGPLVVELAQQTQE .
69

Just for reference, paper PMC7074997 is where these values come from.
